Here, compounds appear alongside pIC50 reported for Interstitial collagenase (Homo sapiens) in the literature.
Would you please state pIC50, meaning minus log10 of the concentration in mol/L, as a bare number?

For orientation, consider the following solved cases.
| compound | result |
| --- | --- |
| O=C(O)[C@@H]1[C@@H](Cn2nnc3ccc(C(F)(F)F)cc3c2=O)CC[C@H]1C(=O)c1ccc(OCc2ccc(F)cc2)cc1 (single isomer, unassigned) | 5.48 |
| O=C(O)[C@H]1[C@H](Cn2nnc3ccc(C(F)(F)F)cc3c2=O)CC[C@@H]1C(=O)c1ccc(OCC2CCOCC2)cc1 (racemic) | 5.19 |

Then this compound:
Kindly note: Interstitial collagenase (Homo sapiens), CCCCCCCCCCCCN1CC(C(=O)O)N(S(=O)(=O)c2ccc(-c3ccc(Br)cc3)cc2)CC1=O (stereo not drawn) , pIC50 value reported: 5.08
